Biological target: T1, human PD-L2/B7-DC protein, with His tag (human, UniProt Q9BQ51 20-219, limits assumed)
T1 construct: Bought protein
T1 sequence (looked up): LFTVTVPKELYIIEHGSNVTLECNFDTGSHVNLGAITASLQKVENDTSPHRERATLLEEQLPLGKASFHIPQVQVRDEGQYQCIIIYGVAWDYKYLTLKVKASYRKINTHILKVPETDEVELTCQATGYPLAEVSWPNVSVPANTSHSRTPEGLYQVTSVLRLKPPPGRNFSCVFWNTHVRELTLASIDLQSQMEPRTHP
Assay: SPR (Biacore T200), antibody captured on Protein A chip, response at 200 nM antigen
Item-by-item account of Response (RU)

binder	Response (RU)
10D7 (antibody, human IgG1, kappa, V domains shown, also called 10D7-WT; Ab10D7) VH: QVQLVQSGPGLVKPSETLSLTCTVSGGSISRSSYYWGWIRQPPGKGLEWIGNIFYAGSTYYNPSLKSRVTISVDTSKNQFSLKLSSVTAADTAVYYCARRITGTTGWFDPWGQGTLVTVSS VL: DIQLTQSPSSLSASVGDRVTITCRASQGIRNDLGWYQQKPGKAPKLLIYAASTLQSGVPSRFSGSGSGTDFTLTISSLQPEDFATYYCLQDYNYPRTFGQGTKVEIKR	-0.2
Enoblituzumab (antibody, human IgG1, kappa, V domains shown, Humanized anti-B7-H3 antibody of MacroGenics with optimised Fc, used as the positive control; also called AbEno; enoblituzumab-IgG1-Mut) VH: EVQLVESGGGLVQPGGSLRLSCAASGFTFSSFGMHWVRQAPGKGLEWVAYISSDSSAIYYADTVKGRFTISRDNAKNSLYLQMNSLRDEDTAVYYCGRGRENIYYGSRLDYWGQGTTVTVSS VL: DIQLTQSPSFLSASVGDRVTITCKASQNVDTNVAWYQQKPGKAPKALIYSASYRYSGVPSRFSGSGSGTDFTLTISSLQPEDFATYYCQQYNNYPFTFGQGTKLEIKR	-1.2
6B5 (antibody, human IgG1, kappa, V domains shown, also called 6B5-WT; Ab6B5) VH: QVQLVESGPGLVKPSQTLSLTCTVSDGSISSGGYYWSWIRQHPGKGLEWIGYIYYSGGTYYSPSLKSRVTISVDTSKNQFSLKLTSVTAADTAVYYCARRAGYSSSFDSWGQGILVTVSS VL: EIVLTQSPLSLPVTPGEPASISCRSSQSLLYSNGYTYLDWYLQKPGQSPQFLIYLGFNRASGVPDRFSGSGSGTDFTLKISRVEAEDVGVYYCMQGLQTPYTFGQGTKLEIKR	-0.2
